Data origin: patent US20030124585A1

- experimental-system: Marmoset Type II GnRH-R (Callithrix jacchus)
- Construct: Full length marmoset Type II GnRH receptor was produced by PCR; expressed in transfected cells; host or cells: COS-7 cells, transient transfection (Superfect), plasmid pcDNA3.1+
- Sequence (Q95MG6 1-380): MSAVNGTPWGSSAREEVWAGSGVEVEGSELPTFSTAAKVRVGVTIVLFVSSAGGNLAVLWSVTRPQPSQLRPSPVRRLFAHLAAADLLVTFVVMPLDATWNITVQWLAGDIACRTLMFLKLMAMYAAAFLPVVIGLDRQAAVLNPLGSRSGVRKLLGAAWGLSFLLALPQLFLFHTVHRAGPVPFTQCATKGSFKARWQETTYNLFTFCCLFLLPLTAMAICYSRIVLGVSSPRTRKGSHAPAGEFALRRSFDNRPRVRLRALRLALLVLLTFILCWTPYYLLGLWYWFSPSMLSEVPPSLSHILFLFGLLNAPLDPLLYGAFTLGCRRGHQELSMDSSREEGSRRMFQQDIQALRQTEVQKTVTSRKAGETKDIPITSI
- method-summary: Receptor binding, competition with 125I-[His5,D-Tyr6]GnRH, transfected COS-7 cells
- condition-details: Table 1; s.e.m., n=3-6; read-out: Ligand binding (IC50) Marmoset Type II
Square brackets hold non-standard residues; d marks the D form. Peptide text beside a SMILES is read from it. pGlu = O=C1CC[C@@H](C(=O)O)N1
Give measured pIC50 for each item. Keep answers brief.
In plain terms, pIC50 is the concentration in mol/L turned into minus its base-10 logarithm.

Request: Report pIC50 for NC(=O)CNC(=O)[C@@H]1CCCN1C(=O)[C@H](Cc1ccc(O)cc1)NC(=O)[C@H](Cc1c[nH]c2ccccc12)NC(=O)CNC(=O)[C@H](Cc1c[nH]cn1)NC(=O)[C@H](CO)NC(=O)[C@H](Cc1c[nH]c2ccccc12)NC(=O)[C@H](Cc1c[nH]cn1)NC(=O)[C@@H]1CCC(=O)N1 [GnRH II, [His^5,Trp^7,Tyr^8]GnRH I] ([pGlu]HWSHGWYPG-NH2; C-terminus assumed)
Result: 8.97

Request: Report pIC50 for CC(C)C[C@H](NC(=O)[C@H](Cc1c[nH]c2ccccc12)NC(=O)CNC(=O)[C@H](Cc1ccc(O)cc1)NC(=O)[C@H](CO)NC(=O)[C@H](Cc1c[nH]c2ccccc12)NC(=O)[C@H](Cc1c[nH]cn1)NC(=O)[C@@H]1CCC(=O)N1)C(=O)N1CCC[C@H]1C(=O)NCC(N)=O [sGnRH, [Trp^7,Leu^8]GnRH I] ([pGlu]HWSYGWLPG-NH2; C-terminus assumed)
Result: 8.02

Request: Report pIC50 for N=C(N)NCCC[C@@H](NC(=O)[C@H](Cc1c[nH]cn1)NC(=O)[C@H](CO)NC(=O)[C@H](Cc1c[nH]c2ccccc12)NC(=O)[C@H](Cc1c[nH]cn1)NC(=O)[C@@H]1CCC(=O)N1)C(=O)N[C@@H](Cc1c[nH]c2ccccc12)C(=O)N[C@@H](Cc1ccc(O)cc1)C(=O)N1CCC[C@H]1C(=O)NCC(N)=O [[D-Arg^6] GnRH II, [D-Arg^6]GnRH II] ([pGlu]HWSH[dR]WYPG-NH2; C-terminus assumed)
Result: 8.48

Request: Report pIC50 for CC(C)C[C@H](NC(=O)CNC(=O)[C@H](Cc1ccc(O)cc1)NC(=O)[C@H](CO)NC(=O)[C@H](Cc1c[nH]c2ccccc12)NC(=O)[C@H](Cc1c[nH]cn1)NC(=O)[C@@H]1CCC(=O)N1)C(=O)N[C@@H](CCCNC(=N)N)C(=O)N1CCC[C@H]1C(=O)NCC(N)=O
Result: 7.37
